- Tested On: Casein kinase I isoform delta (Homo sapiens, UniProt P48730)
- Sequence (P48730 whole entry, canonical isoform): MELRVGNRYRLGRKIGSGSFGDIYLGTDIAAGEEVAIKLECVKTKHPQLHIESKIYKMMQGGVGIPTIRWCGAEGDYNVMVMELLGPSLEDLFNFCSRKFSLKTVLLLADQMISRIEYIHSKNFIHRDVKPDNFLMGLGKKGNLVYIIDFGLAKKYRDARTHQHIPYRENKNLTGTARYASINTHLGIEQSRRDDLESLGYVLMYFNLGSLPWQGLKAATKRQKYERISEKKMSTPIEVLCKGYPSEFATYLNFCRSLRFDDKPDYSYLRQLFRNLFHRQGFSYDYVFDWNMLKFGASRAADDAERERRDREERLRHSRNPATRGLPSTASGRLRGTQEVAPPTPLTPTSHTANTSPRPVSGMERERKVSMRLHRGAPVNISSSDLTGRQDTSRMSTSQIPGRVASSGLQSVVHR
- Method Notes: Inhibition of CK1 delta (unknown origin) using PLSRTLpSVASLPGL as substrate after 60 mins by microplate reader analysis
Measured Quantity: IC50 (µM)

Compound | Unit Annotation | IC50
CNCc1cc(-c2cn(C)nc2-c2ccc(F)cc2)ccn1 | µM | 0.0129

A: Cn1cc(-c2ccnc(C3COCCN3)c2)c(-c2ccc(F)cc2)n1 (single isomer, unassigned; (-))
B: Cn1cc(-c2ccncc2)c(-c2ccc(F)cc2)n1
C: Cn1cc(-c2ccnc(CO)c2)c(-c2ccc(F)cc2)n1
Query block: Hello, I need these entries ordered by IC50, highest reading first. Thanks! Write the labels in rank order as requested.
Result block: B, C, A

Data provenance is ChEMBL document CHEMBL2417378.
